- assay.system: human Vitamin D Receptor (VDR), VDR (gene 7421) (UniProt P11473)
- Sequence (P11473 whole entry, looked up): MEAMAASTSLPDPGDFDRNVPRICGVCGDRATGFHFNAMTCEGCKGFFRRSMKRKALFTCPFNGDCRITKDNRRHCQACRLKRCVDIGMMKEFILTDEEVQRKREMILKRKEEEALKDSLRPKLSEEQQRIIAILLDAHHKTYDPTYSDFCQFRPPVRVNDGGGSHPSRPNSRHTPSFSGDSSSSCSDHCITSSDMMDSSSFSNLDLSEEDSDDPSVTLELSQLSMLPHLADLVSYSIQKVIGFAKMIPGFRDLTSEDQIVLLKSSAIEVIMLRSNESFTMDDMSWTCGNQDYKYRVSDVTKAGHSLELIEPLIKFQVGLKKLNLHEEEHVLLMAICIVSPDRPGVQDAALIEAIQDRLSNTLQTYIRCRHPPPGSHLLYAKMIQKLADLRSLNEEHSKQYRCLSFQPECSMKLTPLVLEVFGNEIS
- test: ATG_VDR_TRANS: Attagene TRANS-FACTORIAL HepG2 Assay for human Vitamin D Receptor (VDR) (AID 2283022)
Inconclusive results are not listed. The source made the active and inactive calls. The calls were made as follows: active = hit-call score of the fitted dose curve at least 0.9, where 1 is the maximum; inconclusive = response in the unintended direction; inactive = score below 0.9.
measurement.type: outcome

# compound, outcome
rows = [
    ("CC1CNCC(C)O1 (stereo not given)", "inactive"),
    ("CC(C)[C@@H]1CC[C@@H](C)C[C@H]1O", "inactive"),
    ("CCOC=O", "inactive"),
    ("CCCCc1ccc2ccccc2c1S(=O)(=O)O", "inactive"),
    ("OCC(F)(F)C(F)(F)C(F)(F)C(F)(F)C(F)(F)C(F)(F)C(F)(F)C(F)(F)C(F)(F)C(F)(F)C(F)(F)F", "inactive"),
]

For O=CC(F)(F)C(F)(F)C(F)(F)F the compound record lists outcome as inactive

Form field outcome, entry CC(C)(C)c1ccc(CCC=O)cc1 : inactive

The recorded outcome for C[C@]12CC[C@@H]3c4ccc(O)cc4CC[C@H]3[C@@H]1C[C@@H](O)[C@@H]2O is inactive

The compound listed as Oc1c(Cl)cc(Cl)cc1Sc1cc(Cl)cc(Cl)c1O has a reported outcome of inactive
